Hello, the source for this data is patent US20180057604A1, in case you need it.

EC50 values, listed per item
Target: T1, cyno TfR extracellular domain (analogous construct to human TfR ecd) (cynomolgus monkey, UniProt Q5RDH6 87-760 (Pongo abelii entry))
T1 construct: also called cynoTfR ecd
T1 chain: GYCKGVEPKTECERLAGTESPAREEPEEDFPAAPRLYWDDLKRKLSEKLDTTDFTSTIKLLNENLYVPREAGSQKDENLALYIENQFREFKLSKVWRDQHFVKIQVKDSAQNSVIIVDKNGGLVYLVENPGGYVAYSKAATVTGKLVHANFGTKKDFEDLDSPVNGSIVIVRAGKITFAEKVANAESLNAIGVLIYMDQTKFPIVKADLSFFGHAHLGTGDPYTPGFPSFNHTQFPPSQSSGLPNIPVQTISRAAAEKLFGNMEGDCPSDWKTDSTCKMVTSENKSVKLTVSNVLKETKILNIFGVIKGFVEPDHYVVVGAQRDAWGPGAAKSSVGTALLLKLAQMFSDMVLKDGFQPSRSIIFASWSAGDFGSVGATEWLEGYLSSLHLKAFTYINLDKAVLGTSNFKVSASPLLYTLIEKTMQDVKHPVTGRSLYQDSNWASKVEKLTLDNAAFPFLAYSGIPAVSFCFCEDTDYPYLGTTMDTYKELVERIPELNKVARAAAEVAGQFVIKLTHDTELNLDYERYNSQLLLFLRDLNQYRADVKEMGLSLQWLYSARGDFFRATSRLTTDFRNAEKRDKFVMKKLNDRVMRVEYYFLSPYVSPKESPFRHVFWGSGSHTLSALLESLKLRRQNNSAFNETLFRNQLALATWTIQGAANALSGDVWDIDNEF
Assay: ELISA, TfR-coated plate, IgG in culture supernatant;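 note: human or cynomolgus TfR coated at 2 µg/mL, supernatant IgG titrated in 1:5 steps for 1 h, bound antibody read with HRP anti-human Fcγ and TMB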
Provide the reading as a plain figure in ng/mL.

Binder	EC50 (ng/mL)
hu15G11.v5 IgG Ala variant L29A (HVR-L1) (antibody, V domains shown, IgG in cell culture supernatant) VH: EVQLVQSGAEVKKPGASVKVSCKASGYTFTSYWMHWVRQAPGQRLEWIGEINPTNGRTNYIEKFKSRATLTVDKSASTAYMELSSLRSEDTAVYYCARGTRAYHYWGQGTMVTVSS VL: DIQMTQSPSSLSASVGDRVTITCRASDNAYSNLAWYQQKPGKSPKLLVYDATNLADGVPSRFSGSGSGTDYTLTISSLQPEDFATYYCQHFWGTPLTFGQGTKVEIK	0.9
hu15G11.v5 IgG Ala variant F63A (HVR-H2) (antibody, name in Kabat numbering, V domains shown, IgG in cell culture supernatant; Kabat numbers after 52a lie one below the linear count) VH: EVQLVQSGAEVKKPGASVKVSCKASGYTFTSYWMHWVRQAPGQRLEWIGEINPTNGRTNYIEKAKSRATLTVDKSASTAYMELSSLRSEDTAVYYCARGTRAYHYWGQGTMVTVSS VL: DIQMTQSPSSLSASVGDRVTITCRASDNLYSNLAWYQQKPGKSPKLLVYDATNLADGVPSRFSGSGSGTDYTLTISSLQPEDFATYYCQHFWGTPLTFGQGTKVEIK	0.6
hu15G11.v5 IgG Ala variant T28A (HVR-H1) (antibody, name in Kabat numbering, V domains shown, IgG in cell culture supernatant) VH: EVQLVQSGAEVKKPGASVKVSCKASGYAFTSYWMHWVRQAPGQRLEWIGEINPTNGRTNYIEKFKSRATLTVDKSASTAYMELSSLRSEDTAVYYCARGTRAYHYWGQGTMVTVSS VL: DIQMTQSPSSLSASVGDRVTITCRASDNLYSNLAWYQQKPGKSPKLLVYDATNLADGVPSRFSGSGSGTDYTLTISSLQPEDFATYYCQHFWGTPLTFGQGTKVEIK	0.8

Reported EC50, binder hu15G11.v5 IgG Ala variant Y32A (HVR-H1) (antibody, name in Kabat numbering, V domains shown, IgG in cell culture supernatant) VH: EVQLVQSGAEVKKPGASVKVSCKASGYTFTSAWMHWVRQAPGQRLEWIGEINPTNGRTNYIEKFKSRATLTVDKSASTAYMELSSLRSEDTAVYYCARGTRAYHYWGQGTMVTVSS VL: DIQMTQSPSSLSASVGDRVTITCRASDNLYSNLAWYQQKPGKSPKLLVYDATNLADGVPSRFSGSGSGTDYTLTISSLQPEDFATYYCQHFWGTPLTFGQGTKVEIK : ____
1.4

Endpoint output: EC50 of hu15G11.v5 IgG Ala variant N32A (HVR-L1) (antibody, V domains shown, IgG in cell culture supernatant) VH: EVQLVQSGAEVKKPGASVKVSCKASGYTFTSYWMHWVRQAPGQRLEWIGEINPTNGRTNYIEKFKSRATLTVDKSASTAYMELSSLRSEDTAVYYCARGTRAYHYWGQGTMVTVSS VL: DIQMTQSPSSLSASVGDRVTITCRASDNLYSALAWYQQKPGKSPKLLVYDATNLADGVPSRFSGSGSGTDYTLTISSLQPEDFATYYCQHFWGTPLTFGQGTKVEIK . Value?
4
